ASSAY OVERVIEW: amyloid nucleation score (Sup35N fusion, yeast selection) (log enrichment); library NNK1; higher = more nucleation; inactive = no reads after selection;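 further: zero at mode of non-aggregating sequences after 7 days selection at 30°C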
Quick list: amyloid nucleation score per entry.
MEASURED PROPERTY: amyloid nucleation score

- MSNMHNYLRLIWDTVCIQF: -0.083
- MAICSGMTSWAVLLEVWN: 0.504
- GRRLIKSTQCGVNKVDSAIW: -0.184
- SNFLHCIVIILWLCFNL: 0.53
- TDLNLVMKKGSYVGCSSSCV: -0.605
- RSYVVSPVNY: -1.18
- YDPPNCSAKSNQAGLKCTGA: 2.22
- MPRLTDRDKLCDFVNLQFIF: 6.7
- HWTMYLVQLDSDSAIFFGHM: 2.52
- TYTVGHYVAFWSRRVKSNES: 0.392

---

ASSAY OVERVIEW: amyloid nucleation score (Sup35N fusion, yeast selection) (log enrichment); library NNK2; higher = more nucleation; inactive = no reads after selection
Values of amyloid nucleation score greater than or equal to 0.2 map to fulfilled; values below map to not fulfilled.

• NTRNDWQS = fulfilled
• GTSCSMGPAWGLSCYGTFVD = not fulfilled
• KLSLNVLGSRSERWLLLFSC = not fulfilled
• CHNNFNCPNVLVFLARELSI = fulfilled
• VKNWVISCGGILNDARRLFD = not fulfilled

---

ASSAY OVERVIEW: amyloid nucleation score (Sup35N fusion, yeast selection) (log enrichment); library NNK3; higher = more nucleation; inactive = no reads after selection
MEASURED PROPERTY: amyloid nucleation score

• WIPHPEFGVSIGIV = inactive
• FNVSHLVRYSVCYFCGMIEL = 1.89
• WYHGKWYLDLNYVVPVTQWK = inactive
• FRSFIGKNHEKRSVILCILE = inactive
• YPHLMK = 1.54
• KVAILVHILNNLVRVRVCFN = inactive
• LRAFMYLFTYKTWIRTSNGV = inactive
• IVPSNSARLLSVKALDLPIS = inactive
• GQDWIAV = inactive
• ELRLHNFTFRLVASFWLLRV = inactive

---

ASSAY OVERVIEW: amyloid nucleation score (Sup35N fusion, yeast selection) (log enrichment); library NNK3; higher = more nucleation; inactive = no reads after selection
MEASURED PROPERTY: amyloid nucleation score

• SGGYLYRSSLSTVNSEDAMV = inactive
• YAAIPQIVINVLVGGTNASC = 2.1
• SLMLLRRTAVRPHWWKLRPN = inactive
• TIFKRSPACYYNGIHLWVTF = inactive
• MRWMGDGMRSTNSSVNSHGL = inactive
• YMSFIYGSKR = 1.78
• NDSGAPPLPSGLQPLHH = inactive
• KGCVRSGQIWLRCIWSQYP = inactive
• NGWNVMYLFMCRVNSARSIL = 1.77
• YRFFVKYMLLIYLINFNIFL = 0.057
• SEQVMRTRDSTRAKSGLNVI = 0.569
• CSGYSTNFGK = inactive
• LRWLDVLDHTLDIYVSNESI = inactive
• EVVVELIMLS = inactive
• WMPQFCLRCSSVV = inactive
• FYPRMYTISQMLDAGQDDAA = inactive
• CLSRSCSFFYKATYLRSEMM = inactive
• SSLITFAPIPSLYWDCFSRF = inactive
• SIWSALSDLLLSKREE = inactive
• SGRSRWNAH = inactive
• SCAECDMRWHMGGCICFVLG = inactive
• KEFAIESTVLFYTVLLKAAH = inactive
• ETRFIYAFYFD = inactive
• CNPQTFSFVLMVRLCSKSGV = inactive
• DLVMDFQ = inactive
• VNYSLQVNFVFRWARFKLWL = inactive
• MFSCWYIISWCIEVHDGVKI = inactive
• CPCGNVGVFLGLTRTVKGKS = inactive
• RLSQCRLLVFDGTQVFMCCV = 2.01
• PRQRLMMWSRRG = inactive
• LMYAVLGTQTVSLSAFKSR = -0.3
• VGTPCSYSWLAAPV = inactive
• NGFCCM = inactive
• CLDARYKMRV = inactive
• WLLENVPGITLAFV = inactive
• NGTNPSYNKNCFSVFVESFN = inactive
• PKAGALQQFMMRHSSHFQLS = inactive
• NLSSCIFVVS = inactive
• IRSRTVTWQQWQLHSRNGRS = 0.086
• IGGEYGFLSCYSIGVTTFYV = inactive
• GSICLRQGPSVMVLRMWLCD = inactive
• VNYDSLPVLRPGSEGGVLFN = inactive
• NSLNMRFTLQQTLMGQMNYV = inactive
• IIFQTVR = inactive
• SCRLLNFIICIGWVWGFDVS = inactive
• TNITWYTRVLNGLYYTM = inactive
• SNYGTYRRNSPHSCLRTFWR = inactive
• GGSCLSNPVGKYGILWWMLS = inactive
• KWYIMCLVNILVEVIIFNYF = inactive
• WLARTRRVVLRNLVLAVTCI = inactive
• KFYDSISRLQNERGPVIFPR = inactive
• WNNRWVCNLSTSSGMNLLDR = inactive
• KLYESYASIRNNGCLRCSNS = inactive
• FDGTGRLRF = -0.629
• CTSLRLESPDFFSKRERSSN = inactive
